Listed here: items and their measured MIC.
# Tested on: M. kansasii DSM 44162 (MK DSM)
# ASSAY_OVERVIEW: in vitro antimycobacterial MIC, broth dilution micromethod in Middlebrook 7H9
# Format: cell-based
# PARTICULARS: Mycobacterium kansasii, DSM 44162 / DSM 7, 168 h, read-out: MIC MK DSM 7-d, 7-day cultivation, 37 °C
// note: answer is a bare numeric in µM

[[record]]
molecule = "CCCCCCCOc1ccccc1NC(=O)OC(CN(CCC)CCC)CN1CCCC1.Cl.Cl (stereo not shown)"
value_type = "MIC"
measured = 6.2


In: State the recorded MIC for this entry: CCCCCCOc1cccc(NC(=O)OC(CN(CCC)CCC)CN2CCCCCC2)c1.Cl.Cl (stereo not shown)
Out: 3.6

In: Try CCCCCCCOc1cccc(NC(=O)OC(CN(CCC)CCC)CN2CCCCCC2)c1.Cl.Cl (stereo not shown) next.
Out: 3.6

In: Try CCCCCOc1cccc(NC(=O)OC(CN(CCC)CCC)CN2CCCC2)c1.Cl.Cl (stereo not shown) next.
Out: 7.9

In: Try CCCCCOc1ccccc1NC(=O)OC(CN(CCC)CCC)CN1CCCCCC1.O=C(O)C(=O)O (stereo not shown) next.
Out: 50

In: Try CCCCCOc1cccc(NC(=O)OC(CN(CCC)CCC)CN2CCCCCC2)c1.Cl.Cl (stereo not shown) next.
Out: 7.5

In: Try CCCCCCCOc1cccc(NC(=O)OC(CN(CCC)CCC)CN2CCCC2)c1.Cl.Cl (stereo not shown) next.
Out: 1.9
